Test system: Capan-1
Assay: MTS assay (cell viability, 2D)
Type: cell-based
Details: Homo sapiens, CAPAN-1, 72 h exposure, read-out: IC50 values 72h
Property Name: IC50 (µM)
Field format: number, assumed µM, no unit text.

Problem: Return reported IC50; argument: C/C(=C\CN1CCC(Cc2ccccc2)CC1)c1ccc2ccccc2c1 [RC-106]
Result: 32.8

###

Experiment: In vivo pancreas distribution study
Parameters: species or system male CD-1 mice
Details: male, CD-1, mouse, pancreas, ip; 10 min after i.p. 10 mg/kg, mice; read-out: pancreas C
Property Name: concentration at 10 min (ng/g)
The response must be a number in ng/g with no trailing unit.

Problem: Entry "C/C(=C\CN1CCC(Cc2ccccc2)CC1)c1ccc2ccccc2c1" has what concentration at 10 min?
Result: 13900

###

Assay: In vivo pharmacokinetic study, plasma
Parameters: species or system male CD-1 mice
Settings: male, CD-1, mouse, plasma, ip, 10 mg/kg, mice
Property Name: Cmax (µg/mL)
Report only the number, with the unit µg/mL understood.

Problem: Need Cmax of "C/C(=C\CN1CCC(Cc2ccccc2)CC1)c1ccc2ccccc2c1" , thanks.
Result: 0.973

###

System: Panc-1 spheroids
Assay: CellTiter-Glo 3D cell viability assay
Format: cell-based
Details: Homo sapiens, PANC-1, 48 h, 3D spheroids, diameter up to 600 μm, 12.5–50 μM
Property Name: IC50 (µM)
Lab book: enter the figure in µM, no units written.

Problem: IC50 for C/C(=C\CN1CCC(Cc2ccccc2)CC1)c1ccc2ccccc2c1 [RC-106] ?
Result: 39.6

###

Experiment: In vivo pancreas distribution study
Set-up: species or system male CD-1 mice
Conditions: male, CD-1, mouse, pancreas, ip; 480 min after i.p. 10 mg/kg, mice; read-out: pancreas C
Property Name: concentration at 480 min (ng/g)
The response must be a number in ng/g with no trailing unit.

Problem: Look up concentration at 480 min: "C/C(=C\CN1CCC(Cc2ccccc2)CC1)c1ccc2ccccc2c1"
Result: 995

###

Test: In vivo pancreas distribution study
Set-up: species or system male CD-1 mice
Details: male, CD-1, mouse, pancreas, ip; 120 min after i.p. 10 mg/kg, mice; read-out: pancreas C
Property Name: concentration at 120 min (ng/g)
Output spec: scalar in ng/g, unitless text.

Problem: # query: concentration at 120 min of entry "C/C(=C\CN1CCC(Cc2ccccc2)CC1)c1ccc2ccccc2c1"
Result: 2710

###

Assay: In vivo pancreas distribution study
Set-up: species or system male CD-1 mice
Conditions: male, CD-1, mouse, pancreas, ip; 30 min after i.p. 10 mg/kg, mice; read-out: pancreas C
Protocol: The experiments were performed in agreement with the Italian Law D. L.vo 4 marzo 2014, n. 26. The treatments involved male CD-1 mice and a unique number on the tail identified each animal. […] Mice (n = 4/time point) received an intraperitoneal administration (i.p., 10 mL/kg) of RC-106 at 10 mg/kg. […] Plasma samples were used for quantification of RC-106. […] Standard curves of RC-106 were prepared for plasma and pancreas homogenate, and analyzed together with each QC and unknown sample set. […]
Property Name: concentration at 30 min (ng/g)
Give your result in ng/g as a bare value.

Problem: Need concentration at 30 min of C/C(=C\CN1CCC(Cc2ccccc2)CC1)c1ccc2ccccc2c1 [RC-106] , thanks.
Result: 11100

###

Assay: In vivo pharmacokinetic study, plasma
Parameters: species or system male CD-1 mice
Conditions: male, CD-1, mouse, plasma, ip; 120 min after i.p. 10 mg/kg, mice; read-out: plasma C
Procedure: The experiments were performed in agreement with the Italian Law D. L.vo 4 marzo 2014, n. 26. The treatments involved male CD-1 mice and a unique number on the tail identified each animal. […] Mice (n = 4/time point) received an intraperitoneal administration (i.p., 10 mL/kg) of RC-106 at 10 mg/kg. […] Plasma samples were used for quantification of RC-106. […] Standard curves of RC-106 were prepared for plasma and pancreas homogenate, and analyzed together with each QC and unknown sample set. […]
Property Name: concentration at 120 min
Hey, just the number and the unit after it is fine.

Problem: Suppose we examine the compound C/C(=C\CN1CCC(Cc2ccccc2)CC1)c1ccc2ccccc2c1 [RC-106] ; what concentration at 120 min value has been reported?
Result: 134 ng/mL

###

Test: In vivo pancreas distribution study
Set-up: species or system male CD-1 mice
Conditions: male, CD-1, mouse, pancreas, ip; 240 min after i.p. 10 mg/kg, mice; read-out: pancreas C
Property Name: concentration at 240 min
Show the value, then the unit it is measured in.

Problem: Which value of concentration at 240 min has been reported for "C/C(=C\CN1CCC(Cc2ccccc2)CC1)c1ccc2ccccc2c1" in the records?
Result: 2310 ng/g

###

Tested on: Capan-1
Test: MTS assay (cell viability, 2D)
Assay type: cell-based
Details: Homo sapiens, CAPAN-1, 24 h exposure, read-out: IC50 values 24h
Property Name: pIC50
Convention used: pIC50 is expressed as -log10 of the molar concentration.

Problem: State the recorded pIC50 for this entry: "C/C(=C\CN1CCC(Cc2ccccc2)CC1)c1ccc2ccccc2c1"
Result: 4.25

###

Assay: In vivo pancreas distribution study
Design: species or system male CD-1 mice
Conditions: male, CD-1, mouse, pancreas, ip; mice, 10 mg/kg
Property Name: Tmax (min)
Give just the number in min; leave the unit off.

Problem: Fill in the blank: the reported Tmax of "C/C(=C\CN1CCC(Cc2ccccc2)CC1)c1ccc2ccccc2c1" is ____.
Result: 5

###

Experiment: In vivo pharmacokinetic study, plasma
Parameters: species or system male CD-1 mice
Conditions: male, CD-1, mouse, plasma, ip; 240 min after i.p. 10 mg/kg, mice; read-out: plasma C
Property Name: concentration at 240 min (ng/mL)
Please respond with the number in ng/mL and leave the unit unwritten.

Problem: Reported concentration at 240 min, compound C/C(=C\CN1CCC(Cc2ccccc2)CC1)c1ccc2ccccc2c1 [RC-106] : ____
Result: 76

###

System: Capan-1
Experiment: MTS assay (cell viability, 2D)
Type: cell-based
Details: Homo sapiens, CAPAN-1, 48 h exposure, read-out: IC50 values 48h
Property Name: IC50 (µM)
Give a bare numeral; the unit µM is implied.

Problem: Fill blank: measured IC50 of the compound "C/C(=C\CN1CCC(Cc2ccccc2)CC1)c1ccc2ccccc2c1" is ____.
Result: 50.3

###

Test: In vivo pancreas distribution study
Design: species or system male CD-1 mice
Conditions: male, CD-1, mouse, pancreas, ip; mice, i.p., 10 mg/kg; read-out: t1/2, pancreas
Experimental: The experiments were performed in agreement with the Italian Law D. L.vo 4 marzo 2014, n. 26. The treatments involved male CD-1 mice and a unique number on the tail identified each animal. […] Mice (n = 4/time point) received an intraperitoneal administration (i.p., 10 mL/kg) of RC-106 at 10 mg/kg. […] Plasma samples were used for quantification of RC-106. […] Standard curves of RC-106 were prepared for plasma and pancreas homogenate, and analyzed together with each QC and unknown sample set. […]
Property Name: half-life
Include the unit after the number when you answer.

Problem: For the compound shown here, "C/C(=C\CN1CCC(Cc2ccccc2)CC1)c1ccc2ccccc2c1" , give the reported half-life.
Result: 4 h

###

Experiment: In vivo pancreas distribution study
Parameters: species or system male CD-1 mice
Conditions: male, CD-1, mouse, pancreas/plasma, ip, 10 mg/kg, mice, i.p., 10 mg/kg; read-out: AUC0-t pancreas/AUC0-t plasma
Property Name: Kp

Problem: Find the recorded Kp belonging to "C/C(=C\CN1CCC(Cc2ccccc2)CC1)c1ccc2ccccc2c1" and report it.
Result: ~25

###

Assay: In vivo pancreas distribution study
Design: species or system male CD-1 mice
Conditions: male, CD-1, mouse, pancreas, ip; mice, i.p., 10 mg/kg; read-out: Cmax, pancreas (molar)
Property Name: Cmax

Problem: Reported Cmax for C/C(=C\CN1CCC(Cc2ccccc2)CC1)c1ccc2ccccc2c1 [RC-106] : what is it?
Result: ~70 µM

###

Experiment: In vivo pharmacokinetic study, plasma
Set-up: species or system male CD-1 mice
Settings: male, CD-1, mouse, plasma, ip; mice, i.p., 10 mg/kg; read-out: t1/2, plasma
Property Name: half-life (h)
Number in h, nothing else.

Problem: Please report the recorded half-life for C/C(=C\CN1CCC(Cc2ccccc2)CC1)c1ccc2ccccc2c1 [RC-106] .
Result: 3.37

###

Assay: In vivo pharmacokinetic study, plasma
Design: species or system male CD-1 mice
Details: male, CD-1, mouse, plasma, ip; 30 min after i.p. 10 mg/kg, mice; read-out: plasma C
Property Name: concentration at 30 min (ng/mL)
Kindly provide the numeric value in ng/mL only, without the unit symbol.

Problem: I'd like to know its concentration at 30 min. The compound in question is "C/C(=C\CN1CCC(Cc2ccccc2)CC1)c1ccc2ccccc2c1"
Result: 361
